Molecular target: HCV polymerase (NS5B570n-Con1) (Hepatitis C virus genotype 1b);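 further: recombinant His-tagged enzyme from E. coli, radiolabeled nucleotide incorporation into acid-insoluble RNA read by scintillation after filtration, no-enzyme background subtracted, activity relative to positive control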
Construct: contains a 21 amino acid deletion at the C-terminus relative to the full-length HCV polymerase; 6-histidine (N); made in house; host or cells: E. coli strain BL21(DE) pLysS (pET17b)
Assay: biochemical
Parameters: species or system HCV Con1 strain
Settings: values without asterisk; 20 nM NS5B570n-Con1 enzyme, 20 nM cIRES RNA template; read-out: IC50 HCV NS5B RNA Polymerase Assay
Reported Metric: pIC50
To interpret pIC50, take it as minus log10 of a concentration measured in moles per litre.

Look over these answered cases.
| Smiles Str | Target Or Test System | pIC50 |
| --- | --- | --- |
| COc1cc(C(=O)O)ccc1[N+](=O)[O-] | HCV polymerase (NS5B570n-Con1) (Hepatitis C virus genotype 1b) | 8.52 |
| O=C(O)c1ccc([N+](=O)[O-])c(Cl)c1 | HCV polymerase (NS5B570n-Con1) (Hepatitis C virus genotype 1b) | 8.52 |
| O=C(O)c1ccc([N+](=O)[O-])cn1 | HCV polymerase (NS5B570n-Con1) (Hepatitis C virus genotype 1b) | 8.30 |

Read off the recorded pIC50 for Cc1cc(C(=O)O)ccc1[N+](=O)[O-]
8.15
